Molecular target: Carbonic anhydrase 1 (Homo sapiens)
Sequence (P00915 whole entry): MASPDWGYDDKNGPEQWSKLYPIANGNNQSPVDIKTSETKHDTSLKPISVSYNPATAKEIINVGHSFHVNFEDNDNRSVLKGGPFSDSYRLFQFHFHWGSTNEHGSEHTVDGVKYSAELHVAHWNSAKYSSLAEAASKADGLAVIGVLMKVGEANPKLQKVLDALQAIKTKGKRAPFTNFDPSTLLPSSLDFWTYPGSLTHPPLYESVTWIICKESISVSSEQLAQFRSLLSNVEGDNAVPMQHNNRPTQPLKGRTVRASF
Test: Inhibition of recombinant human carbonic anhydrase-1 incubated for 15 mins by stopped-flow CO2 hydrase assay
parameter-measured: Ki (nM)

(1) CC(C(=O)Nc1ccc(S(N)(=O)=O)cc1)c1cccc(C(=O)c2ccccc2)c1 (racemic)
(2) NS(=O)(=O)c1ccc(OCCCNC(=O)C2CCn3c(C(=O)c4ccccc4)ccc32)cc1 (stereo not drawn)
Lab note: check whether 1 or 2 shows the higher recorded Ki. State your choice using its label.
2

* * *

Target: Carbonic anhydrase 4 (Homo sapiens, UniProt P22748)
Sequence (P22748 whole entry): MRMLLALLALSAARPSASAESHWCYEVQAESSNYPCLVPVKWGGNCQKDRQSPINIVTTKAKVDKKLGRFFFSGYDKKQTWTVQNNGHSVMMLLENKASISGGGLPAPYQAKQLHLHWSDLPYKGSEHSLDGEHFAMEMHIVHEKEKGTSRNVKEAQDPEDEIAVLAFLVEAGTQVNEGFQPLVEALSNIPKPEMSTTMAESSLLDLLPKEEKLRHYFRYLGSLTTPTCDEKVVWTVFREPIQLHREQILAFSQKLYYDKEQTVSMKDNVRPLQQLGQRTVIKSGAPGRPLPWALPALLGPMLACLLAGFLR
Assay: Inhibition of recombinant human carbonic anhydrase-4 incubated for 15 mins by stopped-flow CO2 hydrase assay
pKi: −log10 of the molar value.
parameter-measured: pKi

Illustrative cases are given below, each with its answer.
• CC(C(=O)NCCc1ccc(S(N)(=O)=O)cc1)c1cccc(C(=O)c2ccccc2)c1 (racemic) = 5.52
• CC(C)Cc1ccc(C(C)C(=O)NCCCOc2ccc(S(N)(=O)=O)cc2)cc1 (racemic) = 7.20
• CC(C(=O)NCCCCOc1ccc(S(N)(=O)=O)cc1)c1ccc(-c2ccccc2)c(F)c1 (stereo not drawn) = 5.14

(P) CC(C(=O)NCCCOc1ccc(S(N)(=O)=O)cc1)c1cccc(C(=O)c2ccccc2)c1 (racemic)
(Q) NS(=O)(=O)c1ccc(CCNC(=O)C2CCn3c(C(=O)c4ccccc4)ccc32)cc1 (stereo not drawn)
(R) COc1ccc2c(c1)c(CC(=O)NCCc1ccc(S(N)(=O)=O)cc1)c(C)n2C(=O)c1ccc(Cl)cc1
Output the entries ranked by pKi from maximum down to minimum. // respond by listing labels in the order requested
P, Q, R

(A) CC(C)Cc1ccc(C(C)C(=O)Nc2ccc(S(N)(=O)=O)cc2)cc1 (racemic)
(B) CC1=C(CC(=O)NCCc2ccc(S(N)(=O)=O)cc2)c2cc(F)ccc2/C1=C/c1ccc([S+](C)[O-])cc1 (stereo not drawn)
(C) CC(C(=O)NCCOc1ccc(S(N)(=O)=O)cc1)c1ccc(-c2ccccc2)c(F)c1 (racemic)
(D) CC(C(=O)NCCOc1ccc(S(N)(=O)=O)cc1)c1cccc(C(=O)c2ccccc2)c1 (racemic)
(E) CC(C(=O)Nc1ccc(S(N)(=O)=O)cc1)c1ccc(-c2ccccc2)c(F)c1 (racemic)
Output the entries ranked by pKi from maximum down to minimum. // respond by listing labels in the order requested
D, A, C, E, B

(P) NS(=O)(=O)c1ccc(CCNC(=O)Cc2ccccc2Nc2c(Cl)cccc2Cl)cc1
(Q) COc1ccc2c(c1)c(CC(=O)NCCCOc1ccc(S(N)(=O)=O)cc1)c(C)n2C(=O)c1ccc(Cl)cc1
Which gives the smaller pKi number: P or Q ? State your choice using its label.
P
(P: 5.06, Q: 6.28)
